For each of the binders below, state its koff.
Target: T1, cynomolgus monkey TF-His (cynomolgus monkey, UniProt A0A2K5VX02 33-253)
T1 construct: range 33-252; Recombinant extracellular segment expressed in HEK293-EBNA cells and purified on a nickel column; also called c.TF-His; c; TF-his; not shown: His tag from vector pTT5-His
T1 sequence: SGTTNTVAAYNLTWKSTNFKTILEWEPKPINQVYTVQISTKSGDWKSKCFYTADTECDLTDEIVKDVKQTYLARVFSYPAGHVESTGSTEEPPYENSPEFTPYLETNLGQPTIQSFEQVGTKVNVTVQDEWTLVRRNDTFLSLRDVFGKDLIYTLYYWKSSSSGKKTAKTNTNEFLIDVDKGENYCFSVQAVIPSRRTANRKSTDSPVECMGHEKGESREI
Assay: BLI (ForteBio Octet), antibody on ProA sensor, TF-His as analyte
Give bare numbers, in s⁻¹.

- binder: "2B12B10-hz1 (antibody, human IgG1, kappa, V domains shown, Humanized IgG1 kappa) VH: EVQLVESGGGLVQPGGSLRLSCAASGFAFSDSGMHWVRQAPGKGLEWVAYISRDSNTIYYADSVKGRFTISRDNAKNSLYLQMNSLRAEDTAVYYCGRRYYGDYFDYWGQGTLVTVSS VL: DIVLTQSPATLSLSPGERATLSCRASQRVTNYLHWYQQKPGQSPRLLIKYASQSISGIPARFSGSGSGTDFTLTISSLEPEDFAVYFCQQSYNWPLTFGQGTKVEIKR"
  koff / s⁻¹: 0.0116
- binder: "27H8H3-hz1 (antibody, human IgG1, kappa, V domains shown, Humanized IgG1 kappa) VH: QVQLVQSGAEVKKPGASVKVSCKASGYTFTTYWMHWVRQAPGQGLEWMGMIDPSDSYTSYAQKFQGRVTLTVDTSTSTAYMELSSLRSEDTAVYYCTRGSGPGLFAYWGQGTLVTVSS VL: DIQETQSPSSLSASVGDRVTITCRASQGISNYLNWYQQKPGKAPKLLIYHTSRLHSGVPSRFSGSVSGTDFTLTISSLQPEDFATYFCQQGNTLPYTFGQGTKVEIKR"
  koff / s⁻¹: 0.0125
- binder: "30G11B7-hz1 (antibody, human IgG1, kappa, V domains shown, Humanized IgG1 kappa) VH: EVQLVESGGGLVKPGGSLRLSCAASGFTFSDYGMFWVRQAPGKGLEWVAYISRGSTTIYYADSVKGRFTISRDNAKNSLYLQMNSLRAEDTAVYFCTRRYYGDYFDYWGQGTLVTVSS VL: EIVLTQSPDFQSVTPKEKVTITCRASQSISNYLHWYQQKPDQSPKLLIKYASQSISGVPSRFSGSGSGTDFTLTINSLEAEDAATYFCQQSYNWPLTFGQGTKVEIKR"
  koff / s⁻¹: 0.053

We now examine a further binder.
### Prompt Could you share which koff value was measured for 22F11H5-hz1 (antibody, human IgG1, kappa, V domains shown, Humanized IgG1 kappa) VH: QVQLVQSGAEVKQPGASVKVSCKASGYTFTTYWMHWVRQAPGQGLEWMGMIDPSDSYTTYAQKFQGRVTLTVDTSTSTAYMELSSLRSEDTAVYYCARGSGPGLFAYWGQGTLVTVSS VL: DIQETQSPSSLSASVGDRVTITCRASQDIRNYLNWYQQKPGKAPKLLIYHTSRLQSGVPSRFSGSGSGTDYTLTISSLQPEDFATYYCQQGNMPPYTFGQGTKVEIKR ?
### Response 0.00411
